Tested on: lymphocytic leukemia P388
Assay Info: Lymphocytic leukemia P388 test (intraperitoneal administration)
Assay type: in vivo, DBA/2 mice
Conditions Used: Mus musculus, P388, ip; 25 mg./kg. i.p., days 1, 5 and 9; efficacy ≥125%; read-out: T/C × 100
Result Type: response vs control in vivo at 25 mg/kg
Mention the unit after the number when you answer.

For orientation, consider the following solved cases.
CNCCNCCNc1ccc(NCCNCCNC)c2c1C(=O)c1c(O)ccc(O)c1C2=O.Cl.Cl.Cl.Cl ... 195%
CCN(CC)CCNC1=C2C(=O)c3c(O)ccc(O)c3C(=O)C2=C(NCCN(CC)CC)CC1 ... 137%
O=C1c2c(O)ccc(O)c2C(=O)c2c(NCCNCCN3CCOCC3)ccc(NCCNCCN3CCOCC3)c21 ... 195%
O=C1C2=C(NCCN(CCO)CCO)CCC(NCCN(CCO)CCO)=C2C(=O)c2c(O)ccc(O)c21 ... 150%
CCN(CC)CCNc1ccc(NCCN(CC)CC)c2c1C(=O)c1c(O)ccc(O)c1C2=O ... 168%

Answer for every listed entry: what is its response vs control in vivo at 25 mg/kg? The entries follow.
1. Cl.Cl.O=C1c2c(O)ccc(O)c2C(=O)c2c(NCCNCCCO)ccc(NCCNCCCO)c21 [dihydrochloride]
2. O=C1C2=C(NCCN3CCCC3)CCC(NCCN3CCCC3)=C2C(=O)c2c(O)ccc(O)c21

Resp:
["77%", "136%"]

Provide each entry's response vs control in vivo at 25 mg/kg from the list below.
1. NCCNCCNc1ccc(NCCNCCN)c2c1C(=O)c1c(O)ccc(O)c1C2=O
2. CNCCNc1ccc(NCCNC)c2c1C(=O)c1c(O)ccc(O)c1C2=O.Cl.Cl [dihydrochloride]
3. Cl.Cl.O=C1c2c(O)ccc(O)c2C(=O)c2c(NCCCNCCO)ccc(NCCCNCCO)c21 [dihydrochloride]
4. CC(CNC1=C2C(=O)c3c(O)ccc(O)c3C(=O)C2=C(NCC(C)N(C)C)CC1)N(C)C (centres unmarked)

Resp:
124%
86%
241%
144%

// input: 3 compounds below; output: response vs control in vivo at 25 mg/kg for each
1. O=C1C2=C(NCCN3CCOCC3)CCC(NCCN3CCOCC3)=C2C(=O)c2c(O)ccc(O)c21
2. CNCCNCCNC1=C2C(=O)c3c(O)ccc(O)c3C(=O)C2=C(NCCNCCNC)CC1
3. O=C1C2=C(NCCCNCCO)CCC(NCCCNCCO)=C2C(=O)c2c(O)ccc(O)c21

Resp:
1: 126%; 2: 191%; 3: 168%
